- assay.summary: protease stability score; higher = more stable; yeast display proteolysis, trypsin and chymotrypsin;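 also: relative to predicted unfolded state with 0 unfolded-like and 1 meaning tenfold more protease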
Overview of reported protease stability score across a group of sequences:
// response body must contain only the number

These solved cases illustrate the format of a correct answer.
Task: Which protease stability score reading was recorded for the sequence `DEDRKVAEEVIRIITHESRTGDWDRISENLDPDARVEVDGRHVHGRERFVEFVLHARIEHSHVHDVSMINGRLKVDTELRGIWNGREIDTQVYIISLKIDGRWYLESIHIS` ?
Result: 1.34

Task: Also check `DDTEDLATELSKIIRTVLRTGDWHTLRELADPNMRLNVNGQERHGMDLVREIHLNAGWQRVTVIIRHLHIDENEMHLETETRYDGQKHRVHVHVKKINGRWVIDFIIIH`
Result: 1.09

Task: Also check `DKRIEWYRHVMEVLFNILLTGNFEILEELLDPHVRIDINGKEYHGREQMIEAWETHLHELRIHDMRIKTIDHQGDKHILTTRVDIDIDGQNVEDRTHIELHIIDGRLKSIILRVS`
Result: 1.06

Task: Also check `DEEKERSDRLYERFFTAIFTGDEDLIRKLLDPDTRYQIGDKSSHGRDDIYDRIREMRNKVPNLRWDIRHVRIQGEKVHLDVEFNVNGKRDEFHIELDIVNGRLRHIRIEPV`
Result: 1.24

Task: Also check `SEEEEDIRKFLEDHHRAFATGDEKRLTELMDPNVRFDVNGVDRHGRELAVEMLHKQREEMGIDHLETIEMQDHEVYGDYIHLDVEVHIRVNGKRHILKRRILWLKINGRWTIKHEQLR`
Result: 0.464

Task: Also check `SEEEENILIAYRLIMHSVNTGDESSLLELIDPDYRLDVNGVDIHGREEWYRDQKERFRDAGFKHTEFRFRDLRVQGDKVFLDVEITWHVDGKTIRHRVTMIVLKVNGRWLVESFKVK`
Result: 1.48

Task: Also check `SEHEEELHKFFEEFLKAVETGDWRRLMELIDPHARLHIHQGEKEDHDHGRKFLKEFLKRYPNLRIQVTSLRIDVIDGVAIIILRGHDDVNGVELHSTIRIVVTKVNGQWRVEEVEIRIR`
Result: 1.38

Task: Also check `DKEEHDMKRLADLMKRIFETGDWEEFWSLVDPNVRLHWIVNGREYEVIGRENASEMIEITLELLGVDHVEIHDIDVQGDKVHMKTRSIVNGREIDDNYHYIIVDGRLRRVEIKLK`
Result: 1.81

Further cases:
Task: Which protease stability score reading was recorded for the sequence `DEDDEHTHEMLKLVITAINTGDFEKWRHMADPNVRSDIDGQEVHGRETIIEVWRRIEKELGIENVEVHTRRVEVINGVAHIDGHIRFNGRTHKVRIEVYLINGKIQEFVLSRH` ?
Result: 1.45

Task: Also check `SEDEEAAHWLTLVLIELFRTGDEDSFTKLLDPNARMHVGDKDFHGRHHILHWILHFLRELGVDHRDMKVEDQHFYDGRLELHVTIIIIVGDKKIRIESHFYVEKVNGRWLVKKIHIH`
Result: 1.41

Task: Also check `SEEHEEVHKVIEMLVRHARTGDEDYLRNQFDPNARVRFNGKDRHGRESLDEMLKQFDVIKEVRIKRIDVQGEKIHADIEIRGRYNGQEINTESHIVFKKINGQWIIEEVEFK`
Result: 1.6
